These measurements were taken from ChEMBL document CHEMBL5291721.

System name: 5-hydroxytryptamine receptor 1A (Homo sapiens); further: assay procedure not described here
Sequence (P08908 whole entry): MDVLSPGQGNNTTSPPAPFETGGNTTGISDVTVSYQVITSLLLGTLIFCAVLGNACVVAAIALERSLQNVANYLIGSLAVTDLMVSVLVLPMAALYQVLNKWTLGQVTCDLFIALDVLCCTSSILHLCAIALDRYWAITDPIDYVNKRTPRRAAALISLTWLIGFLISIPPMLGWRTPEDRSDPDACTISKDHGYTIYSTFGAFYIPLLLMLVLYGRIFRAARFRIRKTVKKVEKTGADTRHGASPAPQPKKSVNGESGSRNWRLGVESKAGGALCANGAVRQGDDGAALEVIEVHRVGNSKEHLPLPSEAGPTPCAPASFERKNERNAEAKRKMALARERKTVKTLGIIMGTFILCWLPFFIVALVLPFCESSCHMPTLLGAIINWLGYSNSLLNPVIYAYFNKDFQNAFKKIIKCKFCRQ
*1 amine or outer side, *2 acyl side, *3 side chain or, on linkers, in order; H or OH if unused. Where a SMILES comes first, the peptide text is derived from it. Bridges are numbered along the chain shown (N, C = ends). [ ]: non-standard residue; d: D form. The star is where a group is joined. hTyr(3S-OH,4S-OH,3'-OSO3H) = N[C@H](C(=O)O)[C@H](O)[C@@H](O)c1ccc(O)c(OS(=O)(=O)O)c1; Orn(4R-OH,5R-OH) = O=C([C@H](C[C@@H](O)[C@@H](O)N[*:3])N[*:1])[*:2]; Pro(3S-OH,4S-Me) = C[C@H]1CN[C@H](C(=O)O)[C@H]1O; X1 = CCCCCOc1ccc(-c2cc(-c3ccc(C(=O)*)cc3)no2)cc1; Gln(3R-OH) = NC(=O)C[C@@H](O)[C@H](N)C(=O)O; Hyp = O=C(O)[C@@H]1C[C@@H](O)CN1
Outcome measure: AC50

- CO[C@H]1/C=C/O[C@@]2(C)Oc3c(C)c(O)c4c(O)c(cc(O)c4c3C2=O)NC(=O)/C(C)=C\C=C\[C@H](C)[C@H](O)[C@@H](C)[C@@H](O)[C@@H](C)[C@H](OC(C)=O)[C@@H]1C: > 30 µM

Hey, quick one: what's AC50 for each of these?
1. CC(c1ccc(Cl)c(Cl)c1)N1N=C(N)CC1=O (stereo not given)
2. Cn1c(=O)c2[nH]cnc2n(C)c1=O
3. O=C(O)COc1nn(Cc2ccccc2)c2ccccc12
4. CCCCCCCCCCCCCCCC(=O)OC/C=C(C)/C=C/C=C(C)/C=C/C1=C(C)CCCC1(C)C [VITAMIN A PALMITATE]

> 30 µM
> 30 µM
> 30 µM
> 30 µM

Hey, quick one: what's AC50 for each of these?
1. CC1(C)O[C@@H]2C[C@H]3[C@@H]4CCC5=CC(=O)CC[C@]5(C)[C@@]4(F)[C@@H](O)C[C@]3(C)[C@]2(C(=O)CCl)O1 [HALCINONIDE]
2. COCCCOc1ccnc(C[S+]([O-])c2nc3ccccc3[nH]2)c1C (stereo not given)

> 30 µM
12.8 µM

Hey, quick one: what's AC50 for each of these?
1. CCCCCOc1ccc(-c2cc(-c3ccc(C(=O)N[C@H]4C[C@@H](O)[C@@H](O)NC(=O)[C@@H]5[C@@H](O)[C@@H](C)CN5C(=O)[C@H]([C@H](O)CC(N)=O)NC(=O)[C@H]([C@H](O)[C@@H](O)c5ccc(O)c(OS(=O)(=O)O)c5)NC(=O)[C@@H]5C[C@@H](O)CN5C(=O)[C@H]([C@@H](C)O)NC4=O)cc3)no2)cc1 [MICAFUNGIN] (X1-[Orn(4R-OH,5R-OH)]T[Hyp][hTyr(3S-OH,4S-OH,3'-OSO3H)][Gln(3R-OH)][Pro(3S-OH,4S-Me)]; lactam 1-C)
2. CN(C)C(=O)Oc1cccc([N+](C)(C)C)c1

1: > 30 µM; 2: > 30 µM

Hey, quick one: what's AC50 for each of these?
1. Cc1cc2c(OCC(O)CNC(C)C)cccc2[nH]1 (stereo not given) [MEPINDOLOL]
2. NCCc1ccc(O)cc1

1. 0.0041 µM
2. 7.88 µM

###

System name: UniProt Q01959
Sequence (Q01959 whole entry): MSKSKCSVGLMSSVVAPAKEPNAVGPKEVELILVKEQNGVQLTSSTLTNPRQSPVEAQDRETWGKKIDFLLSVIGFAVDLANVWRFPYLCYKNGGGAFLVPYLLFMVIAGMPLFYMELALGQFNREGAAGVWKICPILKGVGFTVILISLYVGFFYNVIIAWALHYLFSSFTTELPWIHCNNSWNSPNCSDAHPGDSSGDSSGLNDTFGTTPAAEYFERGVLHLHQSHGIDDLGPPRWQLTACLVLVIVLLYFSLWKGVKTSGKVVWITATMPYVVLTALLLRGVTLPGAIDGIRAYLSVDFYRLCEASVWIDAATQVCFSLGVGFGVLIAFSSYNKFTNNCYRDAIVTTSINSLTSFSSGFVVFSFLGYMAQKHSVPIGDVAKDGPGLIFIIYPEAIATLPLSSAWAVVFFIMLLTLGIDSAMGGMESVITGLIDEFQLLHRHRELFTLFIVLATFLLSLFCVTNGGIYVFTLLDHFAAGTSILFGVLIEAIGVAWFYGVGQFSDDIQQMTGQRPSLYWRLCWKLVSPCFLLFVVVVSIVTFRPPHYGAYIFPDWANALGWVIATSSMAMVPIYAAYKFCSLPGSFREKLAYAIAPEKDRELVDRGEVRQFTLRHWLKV
Outcome measure: AC50

• CC(=O)O[C@H]1C[C@H](O[C@H]2[C@@H](O)C[C@H](O[C@H]3[C@@H](O)C[C@H](O[C@H]4CC[C@@]5(C)[C@H](CC[C@@H]6[C@@H]5C[C@@H](O)[C@]5(C)[C@@H](C7=CC(=O)OC7)CC[C@]65O)C4)O[C@@H]3C)O[C@@H]2C)O[C@H](C)[C@H]1O[C@@H]1O[C@H](CO)[C@@H](O)[C@H](O)[C@H]1O [LANATOSIDE C] = > 30 µM
• CN(C)c1cc(CNCC(C)(C)C)c(O)c2c1C[C@H]1C[C@H]3[C@H](N(C)C)C(O)=C(C(N)=O)C(=O)[C@@]3(O)C(O)=C1C2=O = > 30 µM
• CCSc1ccc2c(c1)N(CCCN1CCN(C)CC1)c1ccccc1S2 = 3.87 µM
• C[C@]12CCC(=O)C=C1CC[C@@H]1[C@@H]2[C@@H](O)C[C@@]2(C)[C@H]1CC[C@]2(O)C(=O)COC(=O)CCC(=O)O [HYDROCORTISONE HEMISUCCINATE ANHYDROUS] = > 30 µM
• c1ccc2[nH]c(-c3cscn3)nc2c1 = > 30 µM

Hey, quick one: what's AC50 for each of these?
1. CC[C@H]1OC(=O)[C@H](C)[C@@H](O[C@H]2C[C@@](C)(OC)[C@@H](O)[C@H](C)O2)[C@H](C)[C@@H](O[C@@H]2O[C@H](C)C[C@H](N(C)C)[C@H]2O)[C@](C)(OC)C[C@@H](C)C(=O)[C@H](C)[C@@H](O)[C@]1(C)O
2. O=C(Oc1ccccc1C(=O)O)c1ccccc1O [SALSALATE]
3. Oc1c(I)cc(Cl)c2cccnc12
4. CCCCCCCCNC(C)C(O)c1ccc(SC(C)C)cc1 (stereo not given)

1. > 30 µM
2. > 30 µM
3. > 30 µM
4. 2.21 µM

Hey, quick one: what's AC50 for each of these?
1. C[C@@H]1C[C@H]2[C@@H]3C[C@H](F)C4=CC(=O)C=C[C@]4(C)[C@@]3(Cl)[C@@H](O)C[C@]2(C)[C@H]1C(=O)COC(=O)C(C)(C)C [CLOCORTOLONE PIVALATE]
2. CNC(=O)c1cc(Oc2ccc(NC(=O)Nc3ccc(Cl)c(C(F)(F)F)c3)c(F)c2)ccn1
3. O=P(O)(O)C(Cl)(Cl)P(=O)(O)O
4. Cn1c(=O)c2[nH]cnc2n(C)c1=O
5. COCCOc1cnc(NS(=O)(=O)c2ccccc2)nc1
6. N[C@@H](CSSC[C@H](N)C(=O)O)C(=O)O

1: > 10 µM; 2: 1.04 µM; 3: > 30 µM; 4: > 30 µM; 5: > 30 µM; 6: > 30 µM

###

Field: AC50. Provide a value for each of the molecules that follow.
System name: Voltage-gated inwardly rectifying potassium channel KCNH2 (Homo sapiens, UniProt Q12809); further: assay procedure not described here
Sequence (Q12809 whole entry): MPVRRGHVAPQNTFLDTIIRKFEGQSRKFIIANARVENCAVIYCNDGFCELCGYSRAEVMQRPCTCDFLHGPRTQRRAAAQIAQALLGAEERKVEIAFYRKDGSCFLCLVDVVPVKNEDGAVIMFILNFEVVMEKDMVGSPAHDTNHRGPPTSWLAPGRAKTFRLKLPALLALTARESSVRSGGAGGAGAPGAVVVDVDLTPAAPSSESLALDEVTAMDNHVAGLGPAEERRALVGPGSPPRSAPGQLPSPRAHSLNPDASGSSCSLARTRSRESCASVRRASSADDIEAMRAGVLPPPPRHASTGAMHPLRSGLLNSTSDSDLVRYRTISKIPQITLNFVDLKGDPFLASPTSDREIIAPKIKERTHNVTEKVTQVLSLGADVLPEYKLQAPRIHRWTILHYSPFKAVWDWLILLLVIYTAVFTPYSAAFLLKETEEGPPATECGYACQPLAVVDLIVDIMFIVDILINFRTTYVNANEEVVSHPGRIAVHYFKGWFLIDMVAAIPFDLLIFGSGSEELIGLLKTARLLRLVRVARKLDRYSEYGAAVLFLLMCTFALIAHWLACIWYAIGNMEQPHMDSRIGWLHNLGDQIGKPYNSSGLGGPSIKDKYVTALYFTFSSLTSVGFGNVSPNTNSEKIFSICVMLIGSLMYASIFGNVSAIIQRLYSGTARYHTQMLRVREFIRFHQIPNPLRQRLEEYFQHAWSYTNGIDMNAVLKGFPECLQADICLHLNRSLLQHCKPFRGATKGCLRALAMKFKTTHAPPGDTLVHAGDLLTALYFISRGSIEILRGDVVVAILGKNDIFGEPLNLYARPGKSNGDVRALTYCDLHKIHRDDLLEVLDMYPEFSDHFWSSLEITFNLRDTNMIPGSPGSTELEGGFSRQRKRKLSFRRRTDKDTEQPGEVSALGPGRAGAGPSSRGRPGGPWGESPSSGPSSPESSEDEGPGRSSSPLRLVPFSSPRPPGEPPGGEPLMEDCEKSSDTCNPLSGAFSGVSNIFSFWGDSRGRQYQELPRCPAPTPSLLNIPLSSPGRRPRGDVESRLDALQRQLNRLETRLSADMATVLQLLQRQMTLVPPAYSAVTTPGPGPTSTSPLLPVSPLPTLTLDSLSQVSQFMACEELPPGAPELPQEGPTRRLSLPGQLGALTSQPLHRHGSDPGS
Assay type: functional
Experimental setup: read-out: AC50; further: assay procedure not described here
Give bare numbers, in µM.

* CN(C)C(=O)Oc1cc(OC(=O)N(C)C)cc(C(O)CNC(C)(C)C)c1 (centres undefined) [BAMBUTEROL] | 16
* CNCCC=C1c2ccccc2CCc2ccccc21 [NORTRIPTYLINE] | 2.59
* O=C(Nc1nc(-c2cc(Cl)cs2)c(N2CCN(C3CCCCC3)CC2)s1)c1cnc(N2CCC(C(=O)O)CC2)c(Cl)c1 [AVATROMBOPAG] | 12.4

Consider now this further molecule.
Which AC50 is listed for CCCCNc1ccc(C(=O)OCCN(C)C)cc1 [TETRACAINE] ?
25.9

###

System name: cGMP-inhibited 3',5'-cyclic phosphodiesterase 3A (Homo sapiens, UniProt Q14432); further: assay procedure not described here
Sequence (Q14432 whole entry): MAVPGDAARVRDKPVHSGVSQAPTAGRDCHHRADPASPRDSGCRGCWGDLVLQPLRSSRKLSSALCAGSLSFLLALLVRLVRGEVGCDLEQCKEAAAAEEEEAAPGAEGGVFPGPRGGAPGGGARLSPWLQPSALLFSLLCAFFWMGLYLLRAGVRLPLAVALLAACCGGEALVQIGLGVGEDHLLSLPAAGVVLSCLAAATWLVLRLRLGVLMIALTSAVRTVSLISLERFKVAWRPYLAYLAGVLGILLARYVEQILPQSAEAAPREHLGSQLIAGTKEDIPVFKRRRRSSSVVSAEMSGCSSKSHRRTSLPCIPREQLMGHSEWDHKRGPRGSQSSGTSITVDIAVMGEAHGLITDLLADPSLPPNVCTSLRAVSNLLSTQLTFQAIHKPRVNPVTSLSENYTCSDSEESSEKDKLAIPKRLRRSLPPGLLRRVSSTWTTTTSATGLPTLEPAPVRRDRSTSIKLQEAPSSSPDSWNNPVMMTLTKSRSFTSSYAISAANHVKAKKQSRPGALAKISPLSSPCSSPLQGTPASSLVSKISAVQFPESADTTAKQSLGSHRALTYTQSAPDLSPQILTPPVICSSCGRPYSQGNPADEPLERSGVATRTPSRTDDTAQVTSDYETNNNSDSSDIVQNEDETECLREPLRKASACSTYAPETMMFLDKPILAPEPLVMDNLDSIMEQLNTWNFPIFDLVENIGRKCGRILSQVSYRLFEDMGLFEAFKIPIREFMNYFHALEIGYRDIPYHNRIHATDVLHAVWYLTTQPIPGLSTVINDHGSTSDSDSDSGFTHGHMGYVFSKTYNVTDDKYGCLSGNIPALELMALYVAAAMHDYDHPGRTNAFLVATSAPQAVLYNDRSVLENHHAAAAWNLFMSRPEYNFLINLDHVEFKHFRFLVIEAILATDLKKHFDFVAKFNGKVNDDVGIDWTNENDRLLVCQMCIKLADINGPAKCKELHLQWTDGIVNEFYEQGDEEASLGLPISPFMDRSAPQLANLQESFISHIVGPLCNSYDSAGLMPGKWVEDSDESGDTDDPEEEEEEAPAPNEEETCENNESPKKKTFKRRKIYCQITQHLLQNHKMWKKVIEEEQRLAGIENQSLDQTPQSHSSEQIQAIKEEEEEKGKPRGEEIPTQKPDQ
Assay type: functional
Outcome measure: AC50

Past entries and their recorded results:
• NCCCC(O)(P(=O)(O)O)P(=O)(O)O = 1.09 µM
• CCCCC1(CC)C(=O)NC(=O)NC1=O = > 30 µM
• C[n+]1ccccc1/C=N/O = > 30 µM
• CC#CCn1c(N2CCC[C@@H](N)C2)nc2c1c(=O)n(Cc1nc(C)c3ccccc3n1)c(=O)n2C = > 30 µM

Consider now this further molecule.
Which AC50 is listed for CC1(C)C(/C=C/C=C/C=C/C=C2\N(CCCCS(=O)(=O)O)c3ccc4ccccc4c3C2(C)C)=[N+](CCCCS(=O)(=O)[O-])c2ccc3ccccc3c21 [INDOCYANINE GREEN ACID FORM] ?
29 µM

###

System name: Alpha-2A adrenergic receptor (Homo sapiens); further: assay procedure not described here
Sequence (P08913 whole entry): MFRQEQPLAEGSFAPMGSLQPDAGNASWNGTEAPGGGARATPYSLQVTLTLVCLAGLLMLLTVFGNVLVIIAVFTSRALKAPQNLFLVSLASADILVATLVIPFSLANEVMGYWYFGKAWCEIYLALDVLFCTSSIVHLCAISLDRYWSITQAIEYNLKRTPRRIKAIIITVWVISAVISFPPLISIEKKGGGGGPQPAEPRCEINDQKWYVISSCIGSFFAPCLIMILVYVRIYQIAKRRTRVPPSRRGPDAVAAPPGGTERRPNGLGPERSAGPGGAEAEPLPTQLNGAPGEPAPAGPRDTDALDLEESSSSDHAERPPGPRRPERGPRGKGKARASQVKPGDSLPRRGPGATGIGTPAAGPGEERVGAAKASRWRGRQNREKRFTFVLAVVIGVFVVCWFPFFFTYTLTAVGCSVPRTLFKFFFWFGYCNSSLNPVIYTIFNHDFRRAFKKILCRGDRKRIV
Format: functional, cell-based
Outcome measure: AC50

• COc1ccc(/C=C/C(=O)Nc2ccccc2C(=O)O)cc1OC = > 30 µM
• CC(NCCc1ccc(O)cc1)C(O)c1ccc(O)cc1 (stereo not drawn) = > 30 µM
• CCCCC[C@H](O)/C=C/[C@H]1[C@H](O)CC(=O)[C@@H]1C/C=C\CCCC(=O)O = > 30 µM

Hey, quick one: what's AC50 for each of these?
1. Clc1ccc(C(Cn2ccnc2)OCc2ccc(Sc3ccccc3)cc2)c(Cl)c1 (stereo not drawn)
2. O=C(CCCN1CCC(n2c(O)nc3ccccc32)CC1)c1ccc(F)cc1
3. CC(=O)Nc1c(I)c(C(=O)N[C@H]2C(O)O[C@H](CO)[C@@H](O)[C@@H]2O)c(I)c(N(C)C(C)=O)c1I (stereo partly drawn) [METRIZAMIDE]

1: > 30 µM; 2: 19.2 µM; 3: > 10 µM

Hey, quick one: what's AC50 for each of these?
1. Cc1ccc(=O)n(-c2ccccc2)c1
2. CC(C)OC(=O)C(C(=O)OC(C)C)=C1SC=CS1 [MALOTILATE]
3. COc1ccnc(C[S+]([O-])c2nc3ccc(OC(F)F)cc3[nH]2)c1OC (stereo not drawn)

["> 30 µM", "> 30 µM", "> 10 µM"]

Hey, quick one: what's AC50 for each of these?
1. O=C(CCCN1CCC2(CC1)C(=O)NCN2c1ccccc1)c1ccc(F)cc1
2. N[C@H](Cc1cc(I)c(Oc2cc(I)c(O)c(I)c2)c(I)c1)C(=O)O
3. CO/N=C(\C(=O)N[C@@H]1C(=O)N2C(C(=O)[O-])=C(C[n+]3cccc4c3CCC4)CS[C@H]12)c1csc(N)n1

["0.98 µM", "> 10 µM", "> 30 µM"]

Hey, quick one: what's AC50 for each of these?
1. COc1ccc(C(CN(C)C)C2(O)CCCCC2)cc1 (stereo not drawn)
2. CC1(C)S[C@@H]2[C@H](NC(=O)[C@H](N)c3ccc(O)cc3)C(=O)N2[C@H]1C(=O)O
3. Nc1ccc(C(=O)O)c(O)c1
4. CCCCCCNC(=O)n1cc(F)c(=O)[nH]c1=O
5. COc1cccc(N(C)C(=S)Oc2ccc3c(c2)CCCC3)n1 [LIRANAFTATE]
6. Cc1ccc2c(-c3ccccc3)nc(=O)n(C(C)C)c2c1

1. > 10 µM
2. > 30 µM
3. > 30 µM
4. > 30 µM
5. > 30 µM
6. 28 µM
